- Format: in vivo, Sprague-Dawley rats
- Particulars: male, Sprague-Dawley, rat, plasma, po, 5 mg/kg, t1/2, Slco1b2 KO male rats, 5 mg/kg p.o., mean ± SD, n = 6

Structure Smiles String	half-life
O=C(O)C[C@H](O)C[C@H](O)/C=C/c1c(C2CC2)nc2ccccc2c1-c1ccc(F)cc1	2.92 h

###

- Type: in vivo, Sprague-Dawley rats
- Particulars: male, Sprague-Dawley, rat, plasma, po, 5 mg/kg, MRT0–t, Slco1b2 KO male rats, 5 mg/kg p.o., mean ± SD, n = 6

Compound	MRT last (h)
O=C(O)C[C@H](O)C[C@H](O)/C=C/c1c(C2CC2)nc2ccccc2c1-c1ccc(F)cc1 [pitavastatin, Pitavastatin]	3.65
